Organism: Homo sapiens
test details: Ratio of Kcat/Km for recombinant FTase (unknown origin) to Kcat/Km for recombinant GGTase1 (unknown origin)
Known Ratio of a selection of compounds
Could you respond with only the numeric value?

Please review the entries below; each comes with its answer.
# sample smiles, Ratio
data = [
    ("CCCCCCCCCCC/C(C)=C/COP(=O)(O)OP(=O)(O)O", 2),
    ("CCCCCCCC/C(C)=C/CC/C(C)=C/COP(=O)(O)OP(=O)(O)O", 0.44),
    ("CCCCCCC/C(C)=C/CC/C(C)=C/COP(=O)(O)OP(=O)(O)O", 0.22),
]

// next entry
Req: Look up Ratio for this compound: `CCCCCCCCCCCC/C(C)=C/COP(=O)(O)OP(=O)(O)O`
Resp: 12
